Target: SARS-CoV-2 spike receptor binding domain (native RBD) (SARS-CoV-2, UniProt P0DTC2 330-532)
So I've got a bunch of binders here, and I need their pKd values.
pKd here is simply -log10 of the concentration when that concentration is written in mol/L.

Field pKd (entry antibody 398 (antibody, V domains shown) VH: QVQLVESGGGLVQPGGSLRLSCAASGFTVSSNYMTWVRQAPGKGLEWVSVIYSGGSTYYADSVKGRFTISRDNSKNTLYLQMNSLRADDTAVYYCARDSTADYDFWSGYYVGAFHIWGQGTMVTVSS VL: QTVLTQPASVSGSPGQSITISCTGTSSDVGGYNYVSWYQQHPGKAPKLMIYEVTKRPSGVPDRFSGSKSGNTASLTVSGLQAEDEADYYCSSYAGSNNWVFGGGTKLTVL ) reads 8.99

Field pKd (entry antibody 269 (antibody, V domains shown) VH: QVQLVESGGGLIQPGGSLRLSCAASGLTVNRNYMSWIRQAPGKGLEWVSVIYSGGSTFYADSVKGRFTISRDNSKNTLSLQMNSLRAEDTAIYYCARDFYEGSFDIWGQGTMVTVSS VL: AIQLTQSPSFLSASIGDRVTITCRASQGISSYLAWYQQKPGKAPKLLIYAASTLQSGVPSRFSGSGSGTEFTLTISSLQPEDFASYYCQQLNSYPAPVFGPGTKVDIK ) reads 8.80

Field pKd (entry antibody 158 (antibody, V domains shown) VH: EVQLLESGGDLIQPGGSLRLSCAASGVTVSSNYMSWVRQAPGKGLEWVSIIYPGGSTFYADSVKGRFTISRDNSKNTLYLQMHSLRAEDTAVYYCARDLGSGDMDVWGKGTTVTVSS VL: DIVMTQSPSFLSASVGDRVTITCRASQGISSYLAWYQQKPGKAPKLLIQAASTLQSGVPSRFSGSGSGTEFTLTISSLQPEDFATYYCQQLNSYRYTFGQGTKVEIK ) reads 9.28
